The reader will find reported kon values listed item by item below.
Target: T1, BCMA-Fc recombinant protein (human, UniProt Q02223 1-54)
T1 construct: also called human BCMA protein; BCMA protein; not shown: Fc part
T1 sequence (looked up): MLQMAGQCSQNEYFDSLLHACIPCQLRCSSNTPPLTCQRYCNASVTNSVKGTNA
Assay: SPR, Biacore 8K, CM5 chip; antibody captured by anti-human IgG (Fc), human BCMA protein as analyte (paragraph 147 describes the reverse format)
# number only, unit M⁻¹ s⁻¹ dropped from output

Look over these answered cases.
binder	kon / M⁻¹ s⁻¹
humanized single-domain antibody huD1FGLF (Fc fusion, FR1, FR3 and FR4 replaced and FR2 mutated; Fusion partner inferred; also called huDIFGLF; not shown: fusion partner) QVQLVESGGGLVQPGGSLRLSCAASGRTSTTSVMGWFRQAPGKGLEFVAAITRTDDRQNDGITYYADSVKGRFTISRDNSKNTLYLQMNSLRAEDTAVYYCAAHTSLVFTPDPRYWGQGTLVTVSS	6.26e+06
single-domain antibody D1 (Fc fusion, not shown: human IgG1 Fc, ligated in series to the VHH (vector Lenti-hIgG1-Fc2)) QVQLVESGGGLVQAGGSLRLSCVASGRTSTTSVMGWFRQAPGKERRFVAAITRTDDRQNDGITYYGESVKGRFTISRDNDKNTVYLQMNSLKPEDTAVYYCAAHTSLVFTPDPRYWGQGTPVTVPS	8.73e+06
humanized single-domain antibody hu4811 (Fc fusion, Humanized on DP-47 frameworks, original FR2 kept; Fusion partner inferred; not shown: fusion partner) QVQLVESGGGLVQPGGSLRLSCAASGHTPSNYAMGWFRQTPGKEREFVAAITWSAVTRDDAIPYYADSVKGRFTISRDNSKNTLYLQMNSLRAEDTAVYYCAVDASLVMTPTPRYWGQGTLVTVSS	7.19e+06

[Q] What does the record list as kon for humanized single-domain antibody hu4811FGLF (Fc fusion, FR1, FR3 and FR4 replaced and T45A, E49G, R50L in FR2; Fusion partner inferred; not shown: fusion partner) QVQLVESGGGLVQPGGSLRLSCAASGHTPSNYAMGWFRQAPGKGLEFVAAITWSAVTRDDAIPYYADSVKGRFTISRDNSKNTLYLQMNSLRAEDTAVYYCAVDASLVMTPTPRYWGQGTLVTVSS ?
[A] 1.24e+07

[Q] # query: kon of entry humanized single-domain antibody huD1 (Fc fusion, Humanized on DP-47 frameworks, original FR2 kept; not shown: fusion partner) QVQLVESGGGLVQPGGSLRLSCAASGRTSTTSVMGWFRQAPGKERRFVAAITRTDDRQNDGITYYADSVKGRFTISRDNSKNTLYLQMNSLRAEDTAVYYCAAHTSLVFTPDPRYWGQGTLVTVSS
[A] 7.41e+06

[Q] Any idea what its kon is? The binder is single-domain antibody 48-11 (Fc fusion, Supernatant was used in flow cytometry, Protein A purified material in Biacore; not shown: human IgG1 Fc, ligated in series to the VHH (vector Lenti-hIgG1-Fc2)) QVQLVESGGGLVQAGGSLRLSCAASGHTPSNYAMGWFRQTPGKEREFVAAITWSAVTRDDAIPYYRTSVKGRFTISRDNAKNTVYLQMNSLKPEDTAVYYCAVDASLVMTPTPRYWGQGTQVTVSS
[A] 3.42e+07
